From: ChEMBL document CHEMBL3044879

- Test system: Mus musculus
- Assay Notes: Antagonist activity at mesolimbic dopaminergic D2 receptor in Swiss albino Mus musculus (mouse) assessed as inhibition of apomorphine-induced cage climbing behavior at 10 mg/kg, ip administered 1 hr prior to apomorphine challenge measured after 30 min relative to vehicle-treated control
- Assay type: functional
- Run Conditions: route intraperitoneal
Parameter Measured: inhibition in vivo at 10 mg/kg (%)
Numbers only here, please. The scale is %.

>>> df
                            compound_string  unit_spec  value_measured
0  Cc1nc(-c2ccc(CCN3CCN(c4cnc5ccccc5n4)CC3)cc2)c(C)s1          %              70
1  Cc1nc(-c2ccc(CCN3CCN(c4nc5ccccc5nc4Cl)CC3)cc2)cs1          %              75

In the following, a different molecule is considered.
QUERY: So what's the measured inhibition in vivo at 10 mg/kg for this one? `Cc1sc(N)nc1-c1ccc(CCN2CCN(c3cnc4ccccc4n3)CC2)cc1`
RESULT: 60
